# TEST_PROTOCOL: chemical genetic growth profiling, strain panel (AID 1159580);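 note: tested at 20 µM; growth read once vehicle control cultures reached saturation at 30 °C; 1 = growth at the plate median or of vehicle wells; lower values mean less growth of the strain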
# TEST_CONTEXT: S. cerevisiae deletion strains, growth OD, locus YLR342W, strain FKS1, active compounds read low
About 2,000 (36%) of roughly 5,500 compounds were called active. Not shown: some 18% with an inconclusive outcome. This is one part of the list.
QUANTITY_KIND: normalized growth

Previously resolved entries follow.
MOLECULE | QUANTITY_KIND | ASSAY_VALUE
CCCCCCCCCCCCCCCC(=O)OC/C=C(C)/C=C/C=C(C)/C=C/C1=C(C)CCCC1(C)C | normalized growth | 1.02 (inactive)
Cc1[nH]c(C)c(Cl)c(=O)c1Cl | normalized growth | 1 (inactive)
COc1cc(O)c(C(=O)/C=C/c2ccc(O)c(OC)c2)c(OC)c1 | normalized growth | 0.961 (inactive)
CC(=O)OCC(=O)[C@H]1CCC2C3CCC4=CC(=O)CC[C@]4(C)C3CC[C@@]21C (some centres undefined) | normalized growth | 0.926 (inactive)
COc1cc(O)c(C(=O)/C=C/c2ccccc2)c(OC)c1 | normalized growth | 0.93 (inactive)
CN1CCCN=C1COC(=O)C(O)(c1ccccc1)C1CCCCC1 (centres undefined) | normalized growth | 1 (inactive)
CC(=O)OCC(=O)[C@@]1(O)CCC2C3CCC4=CC(=O)CC[C@]4(C)C3C(=O)C[C@@]21C (some centres undefined) | normalized growth | 0.963 (inactive)
O=C(O)c1cc2ccccc2[nH]1 | normalized growth | 0.991 (inactive)

// for each molecule below, give its normalized growth
1. C=Cc1c2[nH]c(c1C)C=c1[nH]c(c(C)c1C=C)=CC1N=C(C=c3[nH]c(c(C)c3CCC(=O)O)=C2)C(CCC(=O)O)=C1C (centres undefined)
2. COC1=C(OC)C(=O)C(C/C=C(\C)CC/C=C(\C)CC/C=C(\C)CC/C=C(/C)CC/C=C(\C)CC/C=C(\C)CC/C=C(\C)CC/C=C(\C)CC/C=C(\C)CCC=C(C)C)=C(C)C1=O
3. CO[C@H]1[C@H](O)[C@H](O[C@H]2CC[C@]3(C)C4CC[C@]5(C)C(C6=CC(=O)OC6)CC[C@]5(O)C4CC[C@@H]3C2)O[C@@H](C)[C@@H]1O (some centres undefined)

RESULT:
1: 1.03 (inactive); 2: 0.96 (inactive); 3: 1 (inactive)

Take each entry in turn and give its normalized growth.
1. COP(=O)(OC)OC=C(Cl)Cl
2. CCN(CCO)CCCC(C)Nc1ccnc2cc(Cl)ccc12 (centres undefined)

RESULT:
0.983 (inactive)
0.997 (inactive)

# credit: PubChem BioAssay AID1159580
